experimental.target: Cytoplasmic tyrosine-protein kinase BMX (Homo sapiens)
Sequence (P51813 whole entry): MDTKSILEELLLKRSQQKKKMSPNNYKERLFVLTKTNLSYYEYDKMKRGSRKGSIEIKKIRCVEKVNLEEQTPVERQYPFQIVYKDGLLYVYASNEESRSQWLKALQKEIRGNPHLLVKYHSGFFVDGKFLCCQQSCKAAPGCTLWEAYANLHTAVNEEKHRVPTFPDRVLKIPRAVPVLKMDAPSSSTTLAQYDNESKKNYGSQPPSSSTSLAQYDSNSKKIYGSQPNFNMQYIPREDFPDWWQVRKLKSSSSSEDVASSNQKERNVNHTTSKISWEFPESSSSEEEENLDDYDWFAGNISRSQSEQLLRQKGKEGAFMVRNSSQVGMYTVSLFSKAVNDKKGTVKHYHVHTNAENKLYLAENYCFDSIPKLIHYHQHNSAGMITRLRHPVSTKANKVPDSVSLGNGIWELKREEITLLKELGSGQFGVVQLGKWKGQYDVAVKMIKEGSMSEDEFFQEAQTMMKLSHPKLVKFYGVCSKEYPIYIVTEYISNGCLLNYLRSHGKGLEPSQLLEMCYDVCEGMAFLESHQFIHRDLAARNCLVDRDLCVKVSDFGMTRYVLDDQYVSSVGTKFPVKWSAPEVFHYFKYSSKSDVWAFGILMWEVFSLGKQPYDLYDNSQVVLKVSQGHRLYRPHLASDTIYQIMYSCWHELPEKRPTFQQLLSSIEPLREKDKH
protocol.summary: Inhibition of full-length recombinant human His-tagged BMX expressed in baculovirus expression system by Z'-LYTE assay
assay.metric: IC50 (nM)
Expressed in nM, but write only the number.

Known IC50 results, listed for orientation:
>  <compound>
O=C(NCC(F)(F)F)c1cc(-c2cnn3cc(-c4ccc(OCCN5CCCCC5)cc4)cnc23)cs1

>  <experimental.target>
Cytoplasmic tyrosine-protein kinase BMX (Homo sapiens)

>  <result.units>
nM

>  <IC50>
410

$$$$
>  <compound>
Cc1sc(C(=O)N[C@@H]2[C@H](N)CCCC2(F)F)cc1-c1cnn2cc(Cl)cnc12

>  <experimental.target>
Cytoplasmic tyrosine-protein kinase BMX (Homo sapiens)

>  <result.units>
nM

>  <IC50>
9800

$$$$
>  <compound>
Cn1cc(-c2cnc3c(-c4csc(C(=O)NCC(F)(F)F)c4)cnn3c2)cn1

>  <experimental.target>
Cytoplasmic tyrosine-protein kinase BMX (Homo sapiens)

>  <result.units>
nM

>  <IC50>
270

$$$$

Proceeding to the next compound to report its IC50.
Lab book: IC50 of Cn1cc(-c2cnc3c(-c4csc(C(=O)N[C@@H]5CCCC[C@@H]5N)c4)cnn3c2)cn1 (racemic) noted as 3.5

* * *

protocol.summary: Half life in Sprague-Dawley rat at 1 mL/kg, iv administered through catheter measured after 24 hrs by LC-MS/MS analysis
Format: ADME, organism-based
condition: in vivo
assay.metric: half-life (min)
Expressed in min, but write only the number.

Lab book: half-life of Cc1sc(C(=O)N[C@@H]2[C@H](N)CCCC2(F)F)cc1-c1cnn2cc(Cl)cnc12 noted as 42

* * *

The entries below are paired with their reported IC50.
experimental.target: Aurora kinase B (Homo sapiens)
Sequence (Q96GD4 whole entry): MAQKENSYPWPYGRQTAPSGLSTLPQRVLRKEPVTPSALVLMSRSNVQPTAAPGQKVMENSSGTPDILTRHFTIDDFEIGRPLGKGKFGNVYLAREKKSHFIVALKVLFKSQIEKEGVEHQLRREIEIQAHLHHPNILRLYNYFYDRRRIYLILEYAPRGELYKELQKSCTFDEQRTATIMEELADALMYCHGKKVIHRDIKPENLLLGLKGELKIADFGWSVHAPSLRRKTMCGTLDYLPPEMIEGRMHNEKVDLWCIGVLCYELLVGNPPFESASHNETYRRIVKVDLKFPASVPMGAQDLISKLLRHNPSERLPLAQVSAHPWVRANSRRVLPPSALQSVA
protocol.summary: Inhibition of full-length recombinant human His-tagged AURKB expressed in baculovirus expression system by LanthaScreen assay
Expressed in nM, but write only the number.

Known IC50 results, listed for orientation:
>  <molecule>
Cc1sc(C(=O)N[C@@H]2[C@H](N)CCCC2(F)F)cc1-c1cnn2cc(Cl)cnc12

>  <result.units>
nM

>  <IC50>
4600

$$$$
>  <molecule>
O=C(NCC(F)(F)F)c1cc(-c2cnn3cc(-c4ccc(OCCN5CCCCC5)cc4)cnc23)cs1

>  <result.units>
nM

>  <IC50>
33

$$$$

Proceeding to the next molecule to report its IC50.
Summary line: Cn1cc(-c2cnc3c(-c4csc(C(=O)N[C@@H]5CCCC[C@@H]5N)c4)cnn3c2)cn1 (racemic) , Aurora kinase B (Homo sapiens), reported IC50 = 28

* * *

experimental.target: Serine/threonine-protein kinase B-raf (Homo sapiens, UniProt P15056)
Sequence (P15056 whole entry): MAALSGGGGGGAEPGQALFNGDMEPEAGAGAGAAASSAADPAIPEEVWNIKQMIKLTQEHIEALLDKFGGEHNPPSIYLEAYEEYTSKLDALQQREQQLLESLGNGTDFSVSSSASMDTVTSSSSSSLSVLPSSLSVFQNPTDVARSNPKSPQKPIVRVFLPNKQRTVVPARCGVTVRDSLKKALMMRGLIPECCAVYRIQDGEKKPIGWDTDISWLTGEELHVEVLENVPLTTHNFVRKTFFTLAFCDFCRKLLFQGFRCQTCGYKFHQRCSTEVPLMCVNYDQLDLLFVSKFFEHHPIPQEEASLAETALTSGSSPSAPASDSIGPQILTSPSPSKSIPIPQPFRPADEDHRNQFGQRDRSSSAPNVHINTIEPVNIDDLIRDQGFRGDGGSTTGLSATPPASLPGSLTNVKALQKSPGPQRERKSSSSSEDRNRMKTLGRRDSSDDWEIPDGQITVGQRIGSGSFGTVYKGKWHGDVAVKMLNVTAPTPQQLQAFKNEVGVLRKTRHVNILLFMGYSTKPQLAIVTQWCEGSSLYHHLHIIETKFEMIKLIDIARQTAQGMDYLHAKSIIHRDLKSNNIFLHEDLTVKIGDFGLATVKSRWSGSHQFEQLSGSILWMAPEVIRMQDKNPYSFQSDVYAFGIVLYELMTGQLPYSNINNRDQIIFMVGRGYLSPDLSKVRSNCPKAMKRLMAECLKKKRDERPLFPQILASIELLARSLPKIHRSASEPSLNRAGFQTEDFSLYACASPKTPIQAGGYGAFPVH
protocol.summary: Inhibition of full-length recombinant human GST-tagged BRAF expressed in baculovirus expression system by Z'-LYTE assay
The entries below are paired with their reported IC50.
Expressed in nM, but write only the number.

Known IC50 results, listed for orientation:
>  <compound>
Cn1cc(-c2cnc3c(-c4csc(C(=O)N[C@@H]5CCCC[C@@H]5N)c4)cnn3c2)cn1 (racemic)

>  <number>
19

$$$$
>  <compound>
O=C(NCC(F)(F)F)c1cc(-c2cnn3cc(-c4ccc(OCCN5CCCCC5)cc4)cnc23)cs1

>  <number>
550

$$$$
>  <compound>
Cn1cc(-c2cnc3c(-c4csc(C(=O)NCC(F)(F)F)c4)cnn3c2)cn1

>  <number>
1500

$$$$

Proceeding to the next compound to report its IC50.
Lab book: IC50 of Cc1sc(C(=O)N[C@@H]2[C@H](N)CCCC2(F)F)cc1-c1cnn2cc(Cl)cnc12 noted as 1100

* * *

experimental.target: Dual specificity mitogen-activated protein kinase kinase 1 (Homo sapiens, UniProt Q02750)
Sequence (Q02750 whole entry): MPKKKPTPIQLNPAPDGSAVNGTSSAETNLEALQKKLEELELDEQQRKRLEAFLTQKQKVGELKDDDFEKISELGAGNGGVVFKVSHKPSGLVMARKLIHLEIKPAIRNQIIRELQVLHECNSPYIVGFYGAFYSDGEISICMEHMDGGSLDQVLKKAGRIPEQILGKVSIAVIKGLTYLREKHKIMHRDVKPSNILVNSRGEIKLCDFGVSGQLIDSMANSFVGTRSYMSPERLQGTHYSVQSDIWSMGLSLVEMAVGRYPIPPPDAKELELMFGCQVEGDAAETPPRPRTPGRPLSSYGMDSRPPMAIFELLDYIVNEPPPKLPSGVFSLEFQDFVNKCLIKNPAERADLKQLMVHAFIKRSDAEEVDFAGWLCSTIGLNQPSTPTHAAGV
protocol.summary: Inhibition of full-length recombinant human His-tagged MAP2K1 expressed in baculovirus expression system by LanthaScreen assay
assay.metric: pIC50
In simple prose, pIC50 is minus the logarithm base ten of a concentration in moles per litre.

Known pIC50 results, listed for orientation:
>  <molecule>
Cn1cc(-c2cnc3c(-c4csc(C(=O)N[C@@H]5CCCC[C@@H]5N)c4)cnn3c2)cn1 (racemic)

>  <pIC50>
6.92

$$$$
>  <molecule>
O=C(NCC(F)(F)F)c1cc(-c2cnn3cc(-c4ccc(OCCN5CCCCC5)cc4)cnc23)cs1

>  <pIC50>
5.14

$$$$
>  <molecule>
Cn1cc(-c2cnc3c(-c4csc(C(=O)NCC(F)(F)F)c4)cnn3c2)cn1

>  <pIC50>
4.92

$$$$

Proceeding to the next molecule to report its pIC50.
Lab book: pIC50 of Cc1sc(C(=O)N[C@@H]2[C@H](N)CCCC2(F)F)cc1-c1cnn2cc(Cl)cnc12 noted as 5.96

* * *

experimental.target: PAS domain-containing serine/threonine-protein kinase (Homo sapiens)
Sequence (Q96RG2 whole entry, the tested form may be a part): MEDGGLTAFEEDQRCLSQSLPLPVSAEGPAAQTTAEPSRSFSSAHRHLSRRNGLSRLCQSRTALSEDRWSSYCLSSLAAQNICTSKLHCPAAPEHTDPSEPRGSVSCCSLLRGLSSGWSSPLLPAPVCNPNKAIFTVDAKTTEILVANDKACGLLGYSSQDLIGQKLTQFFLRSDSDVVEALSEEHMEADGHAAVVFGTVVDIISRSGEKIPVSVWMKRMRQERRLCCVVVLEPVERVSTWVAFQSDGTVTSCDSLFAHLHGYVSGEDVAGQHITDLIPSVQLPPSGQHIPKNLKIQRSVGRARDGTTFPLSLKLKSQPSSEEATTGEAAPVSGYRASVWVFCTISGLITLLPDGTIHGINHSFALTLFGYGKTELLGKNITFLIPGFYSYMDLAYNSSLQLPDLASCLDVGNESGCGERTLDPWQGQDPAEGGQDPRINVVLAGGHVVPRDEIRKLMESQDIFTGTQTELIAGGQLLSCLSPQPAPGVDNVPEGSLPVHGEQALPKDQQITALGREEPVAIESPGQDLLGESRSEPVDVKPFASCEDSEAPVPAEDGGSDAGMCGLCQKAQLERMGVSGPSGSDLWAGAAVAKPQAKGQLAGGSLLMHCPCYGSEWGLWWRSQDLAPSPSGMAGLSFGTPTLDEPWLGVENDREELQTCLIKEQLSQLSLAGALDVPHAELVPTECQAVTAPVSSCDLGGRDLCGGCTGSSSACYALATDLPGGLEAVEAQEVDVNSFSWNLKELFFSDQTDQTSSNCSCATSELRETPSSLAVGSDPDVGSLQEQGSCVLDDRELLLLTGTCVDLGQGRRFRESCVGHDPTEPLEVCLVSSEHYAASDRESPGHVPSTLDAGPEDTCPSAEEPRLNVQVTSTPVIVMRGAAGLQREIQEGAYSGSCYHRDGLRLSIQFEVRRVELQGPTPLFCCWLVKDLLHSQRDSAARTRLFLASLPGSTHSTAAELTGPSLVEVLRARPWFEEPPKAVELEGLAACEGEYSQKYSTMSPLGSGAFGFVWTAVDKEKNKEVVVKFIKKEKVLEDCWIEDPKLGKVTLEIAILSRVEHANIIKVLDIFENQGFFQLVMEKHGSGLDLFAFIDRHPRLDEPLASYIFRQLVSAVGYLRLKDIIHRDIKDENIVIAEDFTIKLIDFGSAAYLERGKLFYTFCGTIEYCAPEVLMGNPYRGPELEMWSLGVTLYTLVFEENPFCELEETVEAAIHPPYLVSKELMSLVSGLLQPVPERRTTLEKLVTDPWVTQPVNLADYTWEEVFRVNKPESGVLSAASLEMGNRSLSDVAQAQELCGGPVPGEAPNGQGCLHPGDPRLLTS
protocol.summary: Inhibition of recombinant human GST-tagged PASK catalytic domain expressed in baculovirus expression system by Z'-LYTE assay
assay.metric: pIC50
In simple prose, pIC50 is minus the logarithm base ten of a concentration in moles per litre.

>  <compound>
Cn1cc(-c2cnc3c(-c4csc(C(=O)N[C@@H]5CCCC[C@@H]5N)c4)cnn3c2)cn1 (racemic)

>  <assay.metric>
pIC50

>  <number>
5.82

$$$$

Summary line: O=C(NCC(F)(F)F)c1cc(-c2cnn3cc(-c4ccc(OCCN5CCCCC5)cc4)cnc23)cs1 , PAS domain-containing serine/threonine-protein kinase (Homo sapiens), reported pIC50 = 4.43

Summary line: Cc1sc(C(=O)N[C@@H]2[C@H](N)CCCC2(F)F)cc1-c1cnn2cc(Cl)cnc12 , PAS domain-containing serine/threonine-protein kinase (Homo sapiens), reported pIC50 = 5.85

* * *

protocol.summary: Solubility of the compound at pH 7
Type: physicochemical
condition: buffer
assay.metric: solubility (µM)
Expressed in µM, but write only the number.

>  <compound>
Cn1cc(-c2cnc3c(-c4csc(C(=O)N[C@@H]5CCCC[C@H]5N)c4)cnn3c2)cn1 (racemic)

>  <result.units>
µM

>  <solubility>
193

$$$$
>  <compound>
Cn1cc(-c2cnc3c(-c4csc(C(=O)N[C@@H]5CCC[C@@H]5N)c4)cnn3c2)cn1 (racemic)

>  <result.units>
µM

>  <solubility>
69

$$$$
>  <compound>
Cc1sc(C(=O)N[C@@H]2CCCC[C@@H]2N)cc1-c1cnn2cc(-c3cnn(C)c3)cnc12 (racemic)

>  <result.units>
µM

>  <solubility>
192

$$$$
>  <compound>
Cc1sc(C(=O)N[C@@H]2[C@H](N)CCCC2(F)F)cc1-c1cnn2cc(-c3cnn(C)c3)cnc12

>  <result.units>
µM

>  <solubility>
31

$$$$

Lab book: solubility of Cc1sc(C(=O)N[C@@H]2[C@H](N)CCCC2(F)F)cc1-c1cnn2cc(Cl)cnc12 noted as 114

* * *

experimental.target: G protein-coupled receptor kinase 4 (Homo sapiens, UniProt P32298)
Sequence (P32298 whole entry): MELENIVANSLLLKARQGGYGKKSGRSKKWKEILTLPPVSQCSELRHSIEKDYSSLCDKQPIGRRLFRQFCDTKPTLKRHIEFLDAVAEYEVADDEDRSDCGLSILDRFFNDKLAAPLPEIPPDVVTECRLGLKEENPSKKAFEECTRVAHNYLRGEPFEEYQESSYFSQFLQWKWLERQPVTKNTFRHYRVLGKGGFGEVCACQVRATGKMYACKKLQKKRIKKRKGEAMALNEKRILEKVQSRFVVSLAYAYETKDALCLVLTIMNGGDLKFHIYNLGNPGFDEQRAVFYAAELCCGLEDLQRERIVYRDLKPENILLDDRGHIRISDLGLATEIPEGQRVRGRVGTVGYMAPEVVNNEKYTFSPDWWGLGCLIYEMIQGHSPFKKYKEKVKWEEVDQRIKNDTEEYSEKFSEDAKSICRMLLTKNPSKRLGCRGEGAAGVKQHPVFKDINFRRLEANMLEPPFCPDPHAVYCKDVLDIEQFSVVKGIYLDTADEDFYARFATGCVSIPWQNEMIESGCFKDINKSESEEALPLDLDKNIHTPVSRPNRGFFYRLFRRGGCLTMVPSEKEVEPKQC
protocol.summary: Inhibition of full-length recombinant human GST-tagged GRK4 expressed in baculovirus expression system by Z'-LYTE assay
assay.metric: IC50 (nM)
Expressed in nM, but write only the number.

>  <compound>
O=C(NCC(F)(F)F)c1cc(-c2cnn3cc(-c4ccc(OCCN5CCCCC5)cc4)cnc23)cs1

>  <experimental.target>
G protein-coupled receptor kinase 4 (Homo sapiens, UniProt P32298)

>  <result.units>
nM

>  <number>
5300

$$$$
>  <compound>
Cn1cc(-c2cnc3c(-c4csc(C(=O)N[C@@H]5CCCC[C@@H]5N)c4)cnn3c2)cn1 (racemic)

>  <experimental.target>
G protein-coupled receptor kinase 4 (Homo sapiens, UniProt P32298)

>  <result.units>
nM

>  <number>
260

$$$$
>  <compound>
Cn1cc(-c2cnc3c(-c4csc(C(=O)NCC(F)(F)F)c4)cnn3c2)cn1

>  <experimental.target>
G protein-coupled receptor kinase 4 (Homo sapiens, UniProt P32298)

>  <result.units>
nM

>  <number>
19000

$$$$

Summary line: Cc1sc(C(=O)N[C@@H]2[C@H](N)CCCC2(F)F)cc1-c1cnn2cc(Cl)cnc12 , G protein-coupled receptor kinase 4 (Homo sapiens, UniProt P32298), reported IC50 = 670

* * *

The entries below are paired with their reported pIC50.
experimental.target: UniProt:P51812
Sequence (P51812 whole entry): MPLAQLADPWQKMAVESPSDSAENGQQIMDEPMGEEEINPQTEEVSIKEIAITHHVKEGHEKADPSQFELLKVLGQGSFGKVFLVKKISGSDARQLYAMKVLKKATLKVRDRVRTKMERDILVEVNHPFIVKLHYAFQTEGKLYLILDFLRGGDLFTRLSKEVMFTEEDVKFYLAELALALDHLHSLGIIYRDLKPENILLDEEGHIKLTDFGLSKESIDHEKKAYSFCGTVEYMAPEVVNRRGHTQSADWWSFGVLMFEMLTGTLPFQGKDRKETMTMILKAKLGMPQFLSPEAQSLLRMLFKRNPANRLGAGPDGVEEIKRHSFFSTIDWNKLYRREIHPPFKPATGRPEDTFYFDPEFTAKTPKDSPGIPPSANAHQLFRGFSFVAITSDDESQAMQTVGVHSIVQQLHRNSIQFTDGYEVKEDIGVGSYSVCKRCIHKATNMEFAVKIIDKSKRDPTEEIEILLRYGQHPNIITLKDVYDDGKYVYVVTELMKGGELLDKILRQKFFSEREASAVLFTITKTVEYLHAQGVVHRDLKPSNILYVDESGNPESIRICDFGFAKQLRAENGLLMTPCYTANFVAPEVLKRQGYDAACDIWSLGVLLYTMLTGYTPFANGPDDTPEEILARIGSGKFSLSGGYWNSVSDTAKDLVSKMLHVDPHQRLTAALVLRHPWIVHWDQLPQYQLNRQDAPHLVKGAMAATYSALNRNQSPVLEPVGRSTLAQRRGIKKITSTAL
protocol.summary: Inhibition of full-length recombinant human His-tagged RPS6KA3 expressed in baculovirus expression system by Z'-LYTE assay
In simple prose, pIC50 is minus the logarithm base ten of a concentration in moles per litre.

Known pIC50 results, listed for orientation:
>  <molecule.smiles>
O=C(NCC(F)(F)F)c1cc(-c2cnn3cc(-c4ccc(OCCN5CCCCC5)cc4)cnc23)cs1

>  <pIC50>
6.59

$$$$
>  <molecule.smiles>
Cc1sc(C(=O)N[C@@H]2[C@H](N)CCCC2(F)F)cc1-c1cnn2cc(Cl)cnc12

>  <pIC50>
7.33

$$$$

Summary line: Cn1cc(-c2cnc3c(-c4csc(C(=O)NCC(F)(F)F)c4)cnn3c2)cn1 , UniProt:P51812, reported pIC50 = 6.42
